Origin of measurements: patent US6716881B2

Below: a set of entries, each annotated with reported melting point.

compound	melting point (°C)
Cn1cc(C(=O)Nc2ccccc2C=Cc2ccccc2)c(C(F)F)n1 [Example 20]	122
Cn1cc(C(=O)Nc2ccccc2C=Cc2ccccc2)c(C(F)(F)F)n1 [Example 16]	117
Cc1ccc(SCc2ccccc2NC(=O)c2cn(C)nc2C(F)F)cc1 [Example 46]	108
Cn1cc(C(=O)Nc2ccccc2Oc2ncnc(F)c2F)c(C(F)(F)F)n1 [Example 3]	197
Cc1ccc(OCc2ccccc2NC(=O)c2cn(C)nc2C(F)F)c(C)c1 [Example 50]	120
